The reader will find reported relative viability values listed item by item below.
- System: HCC-78
- assay notes: relative viability (nuclei count vs DMSO), 5 days (fraction); higher = more cells survive
- reported conditions: first compound 4 µM

{"molecule": "Cc1sc2c(c1C)C(c1ccc(Cl)cc1)=N[C@@H](CC(=O)OC(C)(C)C)c1nnc(C)n1-2 [JQ1] + Nc1ncn([C@H]2C[C@H](O)[C@@H](CO)O2)c(=O)n1 [Decitabine] (partner 2 µM)", "relative viability": 0.588}
{"molecule": "Cc1sc2c(c1C)C(c1ccc(Cl)cc1)=N[C@@H](CC(=O)OC(C)(C)C)c1nnc(C)n1-2 [JQ1] + O=C(c1cc(Cc2n[nH]c(=O)c3ccccc23)ccc1F)N1CCN(C(=O)C2CC2)CC1 [Olaparib] (partner 8 µM)", "relative viability": 0.494}
{"molecule": "Cc1sc2c(c1C)C(c1ccc(Cl)cc1)=N[C@@H](CC(=O)OC(C)(C)C)c1nnc(C)n1-2 [JQ1] + NC(=O)Nc1cc(-c2cccc(F)c2)sc1C(=O)N[C@H]1CCCNC1 [AZD7762] (partner 0.2 µM)", "relative viability": 0.208}
{"molecule": "Cc1sc2c(c1C)C(c1ccc(Cl)cc1)=N[C@@H](CC(=O)OC(C)(C)C)c1nnc(C)n1-2 [JQ1] + O=C(CCCCCCC(=O)Nc1ccccc1)NO [Vorinostat] (partner 1 µM)", "relative viability": 0.329}
{"molecule": "Cc1sc2c(c1C)C(c1ccc(Cl)cc1)=N[C@@H](CC(=O)OC(C)(C)C)c1nnc(C)n1-2 [JQ1] + CS(=O)(=O)N1CCN(Cc2cc3nc(-c4cccc5[nH]ncc45)nc(N4CCOCC4)c3s2)CC1 [Pictilisib] (partner 1 µM)", "relative viability": 0.192}
{"molecule": "Cc1sc2c(c1C)C(c1ccc(Cl)cc1)=N[C@@H](CC(=O)OC(C)(C)C)c1nnc(C)n1-2 [JQ1] + C[C@]1(O)C[C@@H](c2nc(-c3ccc4ccc(-c5ccccc5)nc4c3)c3c(N)nccn32)C1 [Linsitinib] (partner 1 µM)", "relative viability": 0.249}
{"molecule": "Cc1sc2c(c1C)C(c1ccc(Cl)cc1)=N[C@@H](CC(=O)OC(C)(C)C)c1nnc(C)n1-2 [JQ1] + Cc1cc(Nc2cc(N3CCN(C)CC3)nc(Sc3ccc(NC(=O)C4CC4)cc3)n2)n[nH]1 [Tozasertib] (partner 0.1 µM)", "relative viability": 0.302}
